Target: Kir3.1/Kir3.4 (Homo sapiens, UniProt P48544+P48549)
Sequence (P48549 whole entry): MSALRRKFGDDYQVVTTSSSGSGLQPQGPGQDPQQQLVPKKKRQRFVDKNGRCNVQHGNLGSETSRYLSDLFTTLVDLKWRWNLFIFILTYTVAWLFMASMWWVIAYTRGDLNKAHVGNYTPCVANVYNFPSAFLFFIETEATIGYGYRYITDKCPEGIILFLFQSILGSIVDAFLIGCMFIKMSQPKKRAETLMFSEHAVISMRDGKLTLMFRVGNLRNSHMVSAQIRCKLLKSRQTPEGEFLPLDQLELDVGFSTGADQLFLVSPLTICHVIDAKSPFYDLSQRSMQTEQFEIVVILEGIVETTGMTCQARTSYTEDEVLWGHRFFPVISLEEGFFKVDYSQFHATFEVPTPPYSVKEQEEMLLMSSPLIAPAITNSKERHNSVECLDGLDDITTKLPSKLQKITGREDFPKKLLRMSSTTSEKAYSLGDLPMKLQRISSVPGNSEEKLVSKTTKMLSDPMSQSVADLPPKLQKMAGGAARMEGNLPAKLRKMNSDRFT
Sequence (P48544 whole entry): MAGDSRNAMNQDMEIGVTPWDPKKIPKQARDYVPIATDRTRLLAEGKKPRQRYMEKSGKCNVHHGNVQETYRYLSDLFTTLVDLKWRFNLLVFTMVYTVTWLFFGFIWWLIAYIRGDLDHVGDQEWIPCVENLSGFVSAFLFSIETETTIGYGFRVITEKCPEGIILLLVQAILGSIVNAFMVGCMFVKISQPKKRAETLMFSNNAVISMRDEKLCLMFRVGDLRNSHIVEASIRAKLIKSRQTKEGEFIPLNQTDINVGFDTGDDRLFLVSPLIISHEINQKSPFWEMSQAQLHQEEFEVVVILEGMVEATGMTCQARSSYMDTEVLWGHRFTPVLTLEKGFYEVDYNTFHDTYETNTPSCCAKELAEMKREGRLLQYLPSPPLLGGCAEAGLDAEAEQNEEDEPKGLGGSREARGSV
Assay: Activation of human GIRK1/4 expressed in HEK293 cells co-expressing rat mGlu8 by thallium flux assay
# EC50 annotations
Provide the reading as a plain figure in nM.

| Compound | Reported result |
| --- | --- |
| O=C(Cn1nnc(-c2ccccc2)n1)NC1CC2CCC1C2 (stereo unspecified) | 2760 |
| Cc1cc(NC(=O)Cn2nnc(-c3cccc(C#N)c3)n2)n(C2CCCCC2)n1 | 619 |
| Cc1cc(NC(=O)Cc2ccc(-c3ccc(Cl)c(Cl)c3)cc2)n(C2CCCCC2)n1 | 4350 |

Q: Fill in the recorded EC50 for this compound, with Kir3.1/Kir3.4 (Homo sapiens, UniProt P48544+P48549) as test system: Cc1cc(NC(=O)Cn2nnc(-c3cc(Cl)cc(Cl)c3)n2)n(C2CCCCC2)n1
Ans: 2120

Q: # get_value(readout= EC50, system= Kir3.1/Kir3.4 (Homo sapiens, UniProt P48544+P48549)) for O=C(Cn1nnc(-c2ccccc2)n1)Nc1cc(C2CC2)nn1C1CCCCC1
Ans: 659

Q: Enter reported EC50 observed with Kir3.1/Kir3.4 (Homo sapiens, UniProt P48544+P48549) for Cc1cc(NC(=O)Cn2nnc(-c3ccccc3)n2)n(C2CCS(=O)(=O)C2)n1 (stereo unspecified)
Ans: 2170

FYI, the data here is from ChEMBL document CHEMBL4422673.
